biological target: T1, Recombinant SARS-CoV-2 N protein His tagged (SARS-CoV-2, UniProt P0DTC9 1-419); experiment: BLI (Octet Red 96E), mAb on anti-mouse Fc biosensor, N protein in solution, global 1:1 fit
T1 construct: also called nucleocapsid (N) protein; recombinant HIS tagged SARS-CoV-2 N protein
Consider the following binders and their measured pKd readings.
Would you please state pKd, meaning minus log10 of the concentration in mol/L, as a bare number?

{"binder": "SCT-Pa19 (antibody, mouse IgG1, kappa, V domains shown) VH: QVQLQQPGAELVRPGSSVKLSCKASGYTFTNYWMLWVKQRPMQGLEWIGSIDPSDSETHYNQKFKDKATLTVDKSSSTAYMRLGSLTSEDSAVYYCARDSYGWYFDVWGTGTTVTVSS VL: DIVMTQSQKFMSTSVGDRVSVTCKASQNVGSNVAWYQQKSGQSPKALIYSASYRYSGVPDRFTGSGYGTDFTLTISNVQSEDLAEYFCQQYNNYPLTFGAGTKLELKR", "pKd": 10.55}

Now for the binder whose pKd we want.
Request: Quick check: pKd of SCT-Pa07 (antibody, mouse IgG1, kappa, V domains shown) VH: EVQLQQSGPELVKPGDSVKMSCKASGYTFTDYYMDWVKQSHGKSLEWIGYIYTNNGDTNYNQKFKGKATLTVDKSSSTAYMELHSLTSEDSAVYYCASLYYSNFFDSWGQGTTLTVSS VL: ENVLTQSPAIMSATLGEKVTVSCRARSNVKYMYWYQQKSGASPKLLIYYTSNLASGVPARFSGSGSGTSYSLTISSVEAEDAATYYCQQFTSSPFTFGSGTKLEIKR ?
Response: 9.73
